Tested on: JEG-3
Assay: Confirmatory qHTS for gynecologic anti-cancer compounds from libraries of approved drugs and bioactive compounds; also: nearly all actives have a fitted effect of over 55% in size
Conditions: gynecologic cancer cell panel viability, ATPlite luminescence, 48 h; series mostly up to 57.6 µM
Inconclusive results are not listed. The source made the active and inactive calls. Calls follow the shape of the dose curve; as a rule, active = well fitted cell-killing curve with a large enough effect; inconclusive = small, poorly fitted or top-dose-only effect, or effect the other way; inactive = no such curve, though single readings can be large or run the other way.
Result category, one only: true = active, false = inactive

O=C1c2c(O)ccc(O)c2C(=O)c2c(NCCNCCO)ccc(NCCNCCO)c21    true

Query: Write down the call the test reported for this compound. Item: Cc1c(NC(=O)OCC2COCCN2)cn2ncnc(Nc3ccc4c(cnn4Cc4cccc(F)c4)c3)c12 (stereo not given)
Reply: true

Query: Write down the call the test reported for this compound. Item: "CN1CCN(CCOc2cc(OC3CCOCC3)c3c(Nc4c(Cl)ccc5c4OCO5)ncnc3c2)CC1"
Reply: false

Query: Given "O=C(c1ccc(/C=C/c2n[nH]c3ccccc23)cc1)N1CCNCC1" , state the outcome it received in this test.
Reply: true

Query: Please let me know the test result on file for "Cn1cnc([N+](=O)[O-])c1Sc1ncnc2nc[nH]c12" .
Reply: true

Query: Lab log entry: "O=C1N(c2ccccc2)c2ccccc2C1(Cc1ccncc1)Cc1ccncc1" — outcome as called in the assay?
Reply: false

Query: Could you please tell me the result logged for "COc1cccc2c1C(=O)c1c(O)c3c(c(O)c1C2=O)C[C@@](O)(C(=O)CO)C[C@@H]3O[C@H]1C[C@H](N)[C@H](O)[C@H](C)O1" in this assay?
Reply: true

Query: Please share the test call associated with "Fc1cc(-c2cccc3ncc(-c4cnn(C5CCNCC5)c4)nc23)cc(F)c1CN1CCOCC1" .
Reply: true

Query: Write down the call the test reported for this compound. Item: "C=CC(=O)Nc1cc2c(Nc3ccc(F)c(Cl)c3)ncnc2cc1OCCCN1CCOCC1"
Reply: true

Query: Per the assay record, what outcome was assigned to "CO[C@@]12[C@H](COC(N)=O)C3=C(C(=O)C(C)=C(N)C3=O)N1C[C@@H]1N[C@@H]12" ?
Reply: false

Query: Returns: the outcome recorded for O=C(O)C1(Cc2cccc(Nc3nccs3)n2)CCC(Oc2cccc(Cl)c2F)CC1 (stereo not given) in this assay.
Reply: false

Query: Please state the recorded outcome for this compound: CC(=O)c1cnc2ccc(-c3cc(Cl)c(O)c(Cl)c3)nc2c1NC1CCC(CN(C)C)CC1 (stereo not given)
Reply: true

Query: Which outcome was assigned to Cc1nc2ccc(CN(C)c3ccc(C(=O)NC(CCC(=O)O)C(=O)O)s3)cc2c(=O)[nH]1 (stereo not given) in this test?
Reply: false

Query: Returns: the outcome recorded for "CN1CCN(Cc2ccc(NC(=O)Nc3ccc(Oc4cc(NC(=O)C5CC5)ncn4)cc3)cc2C(F)(F)F)CC1" in this assay.
Reply: true

Query: Tell me the assay call for Cc1ccc(C(=O)N(CCCN)C(c2oc3cc(Cl)ccc3c(=O)c2Cc2ccccc2)C(C)C)cc1 (stereo not given) please.
Reply: true

====

Test system: JEG-3
Experiment: Confirmatory qHTS for gynecologic anti-cancer compounds from libraries of approved drugs and bioactive compounds; also: nearly all actives have a fitted effect of over 55% in size
Conditions: gynecologic cancer cell panel viability, ATPlite luminescence, 48 h; series mostly up to 57.6 µM
Text: National Center for Advancing Translational Sciences [NCATS] Assay Overview: Chemotherapeutic drug responses vary from cancer to cancer and from patient to patient. […] ATPlite is a luminescence based assay reliant on the conversion of a luciferase substrate to light in the presence of ATP. As a cytotoxic compound will suppress growth and decrease the number of cells, the concentration of ATP will decrease, and less light signal will be detected in the well. […]
Results filed as inconclusive are left out. The source made the active and inactive calls. Calls follow the shape of the dose curve; as a rule, active = well fitted cell-killing curve with a large enough effect; inconclusive = small, poorly fitted or top-dose-only effect, or effect the other way; inactive = no such curve, though single readings can be large or run the other way.
// classify into YES for active, NO for inactive

See these solved cases before continuing.
OCc1ccc(-c2ccc(-c3ccc(CO)s3)o2)s1    NO
CCOc1cc2ncc(C#N)c(Nc3ccc(F)c(Cl)c3)c2cc1NC(=O)/C=C/CN(C)C    YES
CN(C)C(CCOc1cccc2ccccc12)c1ccccc1 (stereo not given)    NO
CC(=O)NCC(=O)N1C2CCC1c1cc(Nc3ncc(C(F)(F)F)c(NC4CCC4)n3)ccc12 (stereo not given)    YES
Nc1nccc(Oc2ccc(NC(=O)c3c[nH]cc(-c4ccc(F)cc4)c3=O)cc2F)c1Cl    YES

Query: How was "C#C[C@]1(O)CC[C@H]2[C@@H]3CCC4=CC(=O)CC[C@@H]4[C@H]3CC[C@@]21CC" classified in this test?
Reply: NO

Query: Each compound tested received a call. Report the one for Cc1nc(Nc2n[nH]c3c2CN(C(=O)NC(CN(C)C)c2ccccc2)C3(C)C)c2sccc2n1 (stereo not given) .
Reply: YES

Query: Name the outcome recorded for "CNC(=O)c1ccccc1Sc1ccc2c(/C=C/c3ccccn3)n[nH]c2c1" in the assay.
Reply: YES

Query: State the result this test recorded for "Oc1cn2c(n1)Nc1ccc(Cl)c(Cl)c1C2" .
Reply: NO

Query: What did the test return for CN1C(=O)C(Cc2c[nH]c3ccccc23)NC1=S (stereo not given) ?
Reply: NO

Query: Short answer needed: outcome of this test for "CC1=C(/C=C/C(C)=C/C=C/C(C)=C/C(=O)Nc2ccc(O)cc2)C(C)(C)CCC1" ?
Reply: YES

Query: Lab log entry: "CN[C@@H](C)C(=O)N[C@H]1CN(C(=O)CC(C)C)CC[C@H]2CC[C@@H](C(=O)NC(c3ccccc3)c3ccccc3)N2C1=O" — outcome as called in the assay?
Reply: NO

Query: Recorded test outcome, item Cc1ccccc1C(OCCN(C)C)c1ccccc1 (stereo not given)
Reply: NO

Query: Check the results log: what was the call for "CC(C)c1nn(-c2c(Cl)cccc2Cl)c2nc(Cc3ccc(OCCO)cc3)[nH]c(=O)c12" ?
Reply: YES

Query: Write down the call the test reported for this compound. Item: "N=C(N)c1ccc(OCCCCCOc2ccc(C(=N)N)cc2)cc1"
Reply: YES

====

Test system: JEG-3
Assay: Confirmatory qHTS for gynecologic anti-cancer compounds from libraries of approved drugs and bioactive compounds; also: nearly all actives have a fitted effect of over 55% in size
Conditions: gynecologic cancer cell panel viability, ATPlite luminescence, 48 h; series mostly up to 57.6 µM
Results filed as inconclusive are left out. Active and inactive are the calls of the source. Calls follow the shape of the dose curve; as a rule, active = well fitted cell-killing curve with a large enough effect; inconclusive = small, poorly fitted or top-dose-only effect, or effect the other way; inactive = no such curve, though single readings can be large or run the other way.
Respond with a class label; see active, inactive

Answered examples (5):
CC[C@]1(O)C[C@H]2CN(CCc3c([nH]c4ccccc34)[C@@](C(=O)OC)(c3cc4c(cc3OC)N(C=O)[C@H]3[C@@](O)(C(=O)OC)[C@H](OC(C)=O)[C@]5(CC)C=CCN6CC[C@]43[C@@H]65)C2)C1    active
CN(C)CC/C=C1\c2ccccc2COc2ccccc21    inactive
Cn1cc(-c2[nH]c3cc(NC(=O)[C@H](N)C4CCCCC4)cc4c3c2C=NNC4=O)cn1    active
O=C(/C=C/c1cccc(S(=O)(=O)Nc2ccccc2)c1)NO    active
NC(=O)c1cccc2cn(-c3ccc([C@@H]4CCCNC4)cc3)nc12    inactive

Query: Check the results log: what was the call for "O=C(Nc1cccnc1)N1CCC(Cc2cccc(Oc3ccc(C(F)(F)F)cn3)c2)CC1" ?
Reply: active

Query: Called result for CC(C)Oc1ccc(C(=O)NC(CNC(=O)CN(C)C)Cc2ccc(-c3cn4cccc(C(C)O)c4n3)cc2)cc1Cl (configuration not stated)
Reply: active

Query: Please share the test call associated with "CCn1cc(-c2ccnc3[nH]c(-c4cccc(CN(C)C)c4)cc23)c(-c2ccc(NC(=O)N(C)C)cc2)n1" .
Reply: active

Query: Hi team, can someone confirm the assay call for "COc1cc2c(Oc3ccc(-c4cnc(Nc5ccc(F)cc5)n(C)c4=O)cc3F)ccnc2cc1OCCCN1CCOCC1" ?
Reply: inactive

Query: Hi, do you know how "COc1cc2ncnc(Nc3ccc(F)c(Cl)c3)c2cc1OCCCN1CCOCC1" came out in this test?
Reply: inactive

Query: Lab log entry: "COc1ccc(-c2cc3nccn3c(Nc3ncccc3C(N)=O)n2)cc1OC" — outcome as called in the assay?
Reply: active

Query: Could you kindly confirm the outcome this assay logged for "Cc1cc(C2CCCCC2)n(O)c(=O)c1" ?
Reply: active

Query: In this assay, the call recorded for "CC(C)CC(=O)Nc1n[nH]c2c1CN(C(=O)C1CCN(C)CC1)C2(C)C" was what?
Reply: active

Query: # fetch the recorded call for "COCCOc1nc(-c2ccc(Cl)c(Cl)c2)n(-c2ccc(NC(=O)CCl)cc2)n1" here
Reply: active

Query: Please share the test call associated with CCN(CC)CCCC(C)Nc1c2ccc(Cl)cc2nc2ccc(OC)cc12 (configuration not stated) .
Reply: active

Query: Hello, I am checking results. What call was entered for "COc1cc2c(NC3CCN(C(C)C)CC3)nc(C3CCCCC3)nc2cc1OCCCN1CCCC1" ?
Reply: active

Query: Hi, sorry to bother you, what did the test record for "NC(=O)c1cnc(-c2ccc(C3(N)CCC3)cc2)c(-c2ccccc2)c1" ?
Reply: active
